assay-remarks: Mouse PK study with Compound 24
test-settings: in vivo, IV 1 mg/kg Compound 24, read-out: T½ (converted)
Structures can show the parent of a compound that is named as a salt.
observation-type: half-life (min)

A. C[C@@H]1C[C@H](C)CN(S(=O)(=O)c2ccc3c(c2)C(=NO)c2cc(S(=O)(=O)N4C[C@H](C)C[C@H](C)C4)ccc2C3=NO)C1 [Compound 1, reference compound]
B. CCC(C)C(N)C(=O)OCON=C1c2ccc(S(=O)(=O)N3C[C@H](C)C[C@H](C)C3)cc2C(=NO)c2cc(S(=O)(=O)N3C[C@H](C)C[C@H](C)C3)ccc21 (some centres unmarked) [Compound 24, dihydrochloride]
[in] Which of the two gives a bigger number for half-life: A or B ? Answer format: the label of the selected item.
[out] A

====

assay-remarks: Mouse PK study with Compound 24
test-settings: in vivo, IV 1 mg/kg Compound 24
Structures can show the parent of a compound that is named as a salt.
observation-type: AUC(0-inf) (ng·h/mL)

a. CCC(C)C(N)C(=O)OCON=C1c2ccc(S(=O)(=O)N3C[C@H](C)C[C@H](C)C3)cc2C(=NO)c2cc(S(=O)(=O)N3C[C@H](C)C[C@H](C)C3)ccc21 (some centres unmarked) [Compound 24, dihydrochloride]
b. C[C@@H]1C[C@H](C)CN(S(=O)(=O)c2ccc3c(c2)C(=NO)c2cc(S(=O)(=O)N4C[C@H](C)C[C@H](C)C4)ccc2C3=NO)C1 [Compound 1, reference compound]
[in] Choose between a and b : whose measured AUC(0-inf) value is numerically larger? Indicate which entry you chose by stating its label.
[out] b
(b: 873 ng·h/mL, a: 379 ng·h/mL)

====

solubility at 2 h values, listed per item
assay-remarks: Solubility assay in buffer (pH 1 and pH 6), LC-MS/MS
Format: physicochemical
test-settings: aqueous buffer pH 1, simulated gastric fluid, kinetic from dmso stock, pH 1, room temperature
Counter-ions that a name gives are not always drawn.

Examples from the recorded data:
compound	solubility at 2 h
C[C@@H]1C[C@H](C)CN(S(=O)(=O)c2ccc3c(c2)C(=NO)c2cc(S(=O)(=O)N4C[C@H](C)C[C@H](C)C4)ccc2C3=NOP(=O)(O)O)C1 [Compound 4]	< 0.78 µM
C[C@@H]1C[C@H](C)CN(S(=O)(=O)c2ccc3c(c2)C(=NO)c2cc(S(=O)(=O)N4C[C@H](C)C[C@H](C)C4)ccc2C3=NOCOP(=O)(O)O)C1 [Compound 10]	< 0.78 µM
CCC(C)C(N)C(=O)OCON=C1c2ccc(S(=O)(=O)N3C[C@H](C)C[C@H](C)C3)cc2C(=NO)c2cc(S(=O)(=O)N3C[C@H](C)C[C@H](C)C3)ccc21 (stereo partly shown) [Compound 24, dihydrochloride]	> 100 µM

Record CCC(C)C(N)C(=O)OCON=C1c2cc(S(=O)(=O)N3C[C@H](C)C[C@H](C)C3)ccc2C(=NO)c2ccc(S(=O)(=O)N3C[C@H](C)C[C@H](C)C3)cc21 (stereo partly shown) [Compound 38] . Reported solubility at 2 h: < 0.78 µM

====

assay-remarks: Pharmacokinetics of Compound 10 (prodrug) and estimation of Compound 1 (parent) following oral and intravenous administration
Format: in vivo, Male Sprague Dawley Rats
test-settings: male, Sprague Dawley, rat, plasma, iv, 1.28 mg/kg, IV 1.28 mg/kg sodium salt of compound 10, read-out: Vdss
observation-type: Vd (L/kg)

A. C[C@@H]1C[C@H](C)CN(S(=O)(=O)c2ccc3c(c2)C(=NO)c2cc(S(=O)(=O)N4C[C@H](C)C[C@H](C)C4)ccc2C3=NO)C1 [Compound 1, reference compound]
B. C[C@@H]1C[C@H](C)CN(S(=O)(=O)c2ccc3c(c2)C(=NO)c2cc(S(=O)(=O)N4C[C@H](C)C[C@H](C)C4)ccc2C3=NOCOP(=O)(O)O)C1
[in] For A and B , which recorded Vd is lower? // return label of chosen record
[out] B
(B: 0.39 L/kg, A: 15 L/kg)

====

assay-remarks: Mouse PK study with Compound 24
test-settings: in vivo, IV 1 mg/kg Compound 24
Counter-ions that a name gives are not always drawn.
observation-type: clearance (mL/min/kg)
Respond with the bare value in mL/min/kg.

Just so you know, measured clearance for CCC(C)C(N)C(=O)OCON=C1c2ccc(S(=O)(=O)N3C[C@H](C)C[C@H](C)C3)cc2C(=NO)c2cc(S(=O)(=O)N3C[C@H](C)C[C@H](C)C3)ccc21 (stereo partly shown) [Compound 24, dihydrochloride] came out at 43.9

====

assay-remarks: Mouse PK study with Compound 24
test-settings: in vivo, PO 10 mg/kg Compound 24
Where a name gives a salt, the structure may show the parent alone.
observation-type: AUC(0-t) (ng·h/mL)

A. CCC(C)C(N)C(=O)OCON=C1c2ccc(S(=O)(=O)N3C[C@H](C)C[C@H](C)C3)cc2C(=NO)c2cc(S(=O)(=O)N3C[C@H](C)C[C@H](C)C3)ccc21 (some centres unmarked) [Compound 24, dihydrochloride]
B. C[C@@H]1C[C@H](C)CN(S(=O)(=O)c2ccc3c(c2)C(=NO)c2cc(S(=O)(=O)N4C[C@H](C)C[C@H](C)C4)ccc2C3=NO)C1 [Compound 1, reference compound]
[in] Hi there! Just curious which has the higher AUC(0-t) between A and B . In your reply, give the label of the chosen option.
[out] B

====

assay-remarks: Stability assay in buffer (pH 1 and pH 6), LC-MS/MS
Assay type: physicochemical
test-settings: pH 1, 37° C.
Where a name gives a salt, the structure may show the parent alone.
observation-type: % Compound remaining at 120 min (%)

molecule	% Compound remaining at 120 min / %
CCC(C)C(N)C(=O)OCON=C1c2ccc(S(=O)(=O)N3C[C@H](C)C[C@H](C)C3)cc2C(=NO)c2cc(S(=O)(=O)N3C[C@H](C)C[C@H](C)C3)ccc21 (stereo partly shown) [Compound 24, dihydrochloride]	101
CC(C)[C@H](N)C(=O)OCON=C1c2cc(S(=O)(=O)N3C[C@H](C)C[C@H](C)C3)ccc2C(=NO)c2ccc(S(=O)(=O)N3C[C@H](C)C[C@H](C)C3)cc21.Cl [Compound 43]	90
CC(C)C[C@H](N)C(=O)OCON=C1c2ccc(S(=O)(=O)N3C[C@H](C)C[C@H](C)C3)cc2C(=NO)c2cc(S(=O)(=O)N3C[C@H](C)C[C@H](C)C3)ccc21.Cl [Compound 41]	98
C[C@@H]1C[C@H](C)CN(S(=O)(=O)c2ccc3c(c2)C(=NOCOC(=O)C(N)C(C)(C)C)c2cc(S(=O)(=O)N4C[C@H](C)C[C@H](C)C4)ccc2C3=NO)C1 (stereo partly shown) [Compound 46]	93
C[C@@H]1C[C@H](C)CN(S(=O)(=O)c2ccc3c(c2)C(=NO)c2cc(S(=O)(=O)N4C[C@H](C)C[C@H](C)C4)ccc2C3=NOCOP(=O)(O)O)C1 [Compound 10]	101
C[C@@H]1C[C@H](C)CN(S(=O)(=O)c2ccc3c(c2)C(=NO)c2cc(S(=O)(=O)N4C[C@H](C)C[C@H](C)C4)ccc2C3=NOP(=O)(O)O)C1 [Compound 4]	96
CCC(C)C(N)C(=O)OCON=C1c2cc(S(=O)(=O)N3C[C@H](C)C[C@H](C)C3)ccc2C(=NO)c2ccc(S(=O)(=O)N3C[C@H](C)C[C@H](C)C3)cc21 (stereo partly shown) [Compound 38]	85

====

assay-remarks: Mouse PK study with Compound 24
test-settings: in vivo, IV 1 mg/kg Compound 24
Structures can show the parent of a compound that is named as a salt.
observation-type: AUC(0-t) (ng·h/mL)

A. CCC(C)C(N)C(=O)OCON=C1c2ccc(S(=O)(=O)N3C[C@H](C)C[C@H](C)C3)cc2C(=NO)c2cc(S(=O)(=O)N3C[C@H](C)C[C@H](C)C3)ccc21 (some centres unmarked) [Compound 24, dihydrochloride]
B. C[C@@H]1C[C@H](C)CN(S(=O)(=O)c2ccc3c(c2)C(=NO)c2cc(S(=O)(=O)N4C[C@H](C)C[C@H](C)C4)ccc2C3=NO)C1 [Compound 1, reference compound]
[in] Select the item whose AUC(0-t) value is smaller, choosing between A and B . Reply with the label of the item you choose.
[out] A
(A: 376 ng·h/mL, B: 752 ng·h/mL)

====

assay-remarks: Mouse PK study with Compound 24
test-settings: in vivo, PO 10 mg/kg Compound 24, read-out: C0/Cmax
Counter-ions that a name gives are not always drawn.
observation-type: Cmax (ng/mL)

molecule	Cmax (ng/mL)
CCC(C)C(N)C(=O)OCON=C1c2ccc(S(=O)(=O)N3C[C@H](C)C[C@H](C)C3)cc2C(=NO)c2cc(S(=O)(=O)N3C[C@H](C)C[C@H](C)C3)ccc21 (some centres unmarked) [Compound 24, dihydrochloride]	60.7
C[C@@H]1C[C@H](C)CN(S(=O)(=O)c2ccc3c(c2)C(=NO)c2cc(S(=O)(=O)N4C[C@H](C)C[C@H](C)C4)ccc2C3=NO)C1 [Compound 1, reference compound]	52.5

Entry source: patent US9963475B2
